molecular target: human 5-HT1A receptor (Homo sapiens, UniProt P08908); construct: expressed in transfected cells; test: cAMP measurements, antagonist mode: block of 8-OH-DPAT-induced inhibition of forskolin-stimulated cAMP; assay type: cell-based; settings: 10 nM 8-OH-DPAT and forskolin, 5-HT1A.CHO cells; read-out: Antagonist Activity IC50
pIC50: −log10 of the molar value.
measured_metric: pIC50

COc1ccc(N2CCN(C3CCN(c4cccc5cccnc45)CC3)CC2)c2ncccc12 :: 7.19

I. COc1cc(N2CCN(C3CCN(c4cccc5cccnc45)CC3)CC2)c2ncccc2c1
II. Clc1cc(N2CCC(N3CCN(c4coc5ccccc45)CC3)CC2)c2ncccc2c1
III. FC(F)(F)c1ccc(N2CCN(C3CCN(c4cccc5cccnc45)CC3)CC2)c2ncccc12
IV. Fc1ccc2occ(N3CCN(C4CCN(c5ccc(F)c6cccnc56)CC4)CC3)c2c1
V. COc1cc(N2CCN(C3CCN(Cc4cccc5cccnc45)CC3)CC2)c2ncccc2c1
Task: Ascending by pIC50, please. Answer format: list of labels, ordered as asked.
Result: II, V, III, IV, I

1. Fc1ccc(N2CCN(C3CCN(c4cccc5cccnc45)CC3)CC2)c2ncccc12
2. COc1cc(N2CCN(C3CCN(c4ccc(F)c5cccnc45)CC3)CC2)c2ncccc2c1
Task: Which value of pIC50 is smaller, the one for 1 or the one for 2 ? Indicate your choice by writing its label.
Result: 1

---

target: UniProtKB P08908; assay: cAMP measurements, agonist mode: inhibition of forskolin-induced increase in cAMP; conditions: forskolin 1 uM, 5-HT1A.CHO cells
measured_metric: EC50 (nM)

Look over these answered cases.
c1cnc2c(N3CCC(N4CCN(c5cccc6cccnc56)CC4)CC3)cccc2c1 :: 10
COc1cc(N2CCN(C3CCN(c4cccc5cc(C(F)(F)F)cnc45)CC3)CC2)c2ncccc2c1 :: 29.5
COc1ccccc1N1CCN(C2CCN(c3noc4ccccc34)CC2)CC1 :: 2.53

A. Fc1cc(N2CCN(C3CCN(c4ccc5cccnc5c4F)CC3)CC2)c2ncccc2c1
B. Clc1cc(N2CCN(C3CCN(c4cccc5cccnc45)CC3)CC2)c2ncccc2c1
Task: Which value of EC50 is smaller, the one for A or the one for B ? Indicate your choice by writing its label.
Result: A

---

Target: human 5-HT1A receptor (Homo sapiens, UniProt P08908)
Construct: expressed in transfected cells
Sequence (P08908 1-422): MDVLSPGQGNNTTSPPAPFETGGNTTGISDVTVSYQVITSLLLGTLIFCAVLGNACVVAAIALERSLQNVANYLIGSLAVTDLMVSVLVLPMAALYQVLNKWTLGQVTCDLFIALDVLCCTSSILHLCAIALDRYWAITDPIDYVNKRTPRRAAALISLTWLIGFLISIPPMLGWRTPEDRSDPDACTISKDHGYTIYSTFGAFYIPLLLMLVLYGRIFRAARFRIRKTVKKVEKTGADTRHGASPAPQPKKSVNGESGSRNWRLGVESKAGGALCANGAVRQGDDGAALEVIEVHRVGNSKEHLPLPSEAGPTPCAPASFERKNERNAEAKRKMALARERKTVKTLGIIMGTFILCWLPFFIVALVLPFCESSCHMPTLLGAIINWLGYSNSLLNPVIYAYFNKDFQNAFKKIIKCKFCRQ
Test: Radioligand binding with [3H]8-OH-DPAT on membranes of 5-HT1A.CHO cells
Settings: [3H]8-OH-DPAT 1.5 nM, 5-HT1A.CHO cell membranes; read-out: 5-HT1A Affinity Ki
measured_metric: Ki (nM)

Clc1cc(N2CCC(N3CCN(c4coc5ccccc45)CC3)CC2)c2ncccc2c1 :: 148
FC(F)(F)c1ccc(N2CCN(C3CCN(c4cccc5cccnc45)CC3)CC2)c2ncccc12 :: 3.04

I. COc1cc(N2CCN(C3CCN(Cc4cccc5cccnc45)CC3)CC2)c2ncccc2c1
II. COc1cc(N2CCN(C3CCN(c4cccc5cccnc45)CC3)CC2)c2ncccc2c1
III. Fc1ccc(N2CCN(C3CCN(c4cccc5cccnc45)CC3)CC2)c2ncccc12
Task: Ascending by Ki, please. Answer format: list of labels, ordered as asked.
Result: III, II, I
(III: 0.15 nM, II: 0.4 nM, I: 75.7 nM)

---

molecular target: human 5-HT1A receptor (Homo sapiens); construct: expressed in transfected cells; experiment: cAMP measurements, antagonist mode: block of 8-OH-DPAT-induced inhibition of forskolin-stimulated cAMP; assay type: cell-based
Some compounds, each annotated with its measured pIC50.
// pIC50 is dimensionless: -log10 of concentration (M)

COc1cc(N2CCN(C3CCN(c4ccc(F)c5c(OC)cc(C(F)(F)F)nc45)CC3)CC2)c2ncccc2c1 [N] :: 8.04

Briefly, pIC50 measured for c1cnc2c(N3CCC(N4CCN(c5cccc6[nH]ccc56)CC4)CC3)cccc2c1 [D] : 7.62

---

molecular target: human 5-HT1A receptor (Homo sapiens); construct: expressed in transfected cells; experiment: Radioligand binding with [3H]8-OH-DPAT on membranes of 5-HT1A.CHO cells; settings: [3H]8-OH-DPAT 1.5 nM, 5-HT1A.CHO cell membranes; read-out: 5-HT1A Affinity Ki
pKi: −log10 of the molar value.
measured_metric: pKi

COc1ccccc1N1CCN(C2CCN(c3csc4ccccc34)CC2)CC1 [G] :: 7.57
Clc1cc(N2CCN(C3CCN(c4cccc5cccnc45)CC3)CC2)c2ncccc2c1 [Example 11] :: 9.32

I. Fc1cc(N2CCN(C3CCN(c4cccc5cccnc45)CC3)CC2)c2ncccc2c1 [B]
II. Clc1cc(N2CCC(N3CCN(c4cc(Cl)cc5cccnc45)CC3)CC2)c2ncccc2c1 [Example 4]
III. COc1cc(N2CCN(C3CCN(c4cccc5cc(C(F)(F)F)cnc45)CC3)CC2)c2ncccc2c1 [L]
IV. Fc1cc(N2CCN(C3CCN(c4ccc5cccnc5c4F)CC3)CC2)c2ncccc2c1 [K]
V. Fc1cc(N2CCN(C3CCN(c4cc(Cl)cc5cccnc45)CC3)CC2)c2ncccc2c1 [Example 5]
Task: Ascending by pKi, please. Answer format: list of labels, ordered as asked.
Result: II, V, III, I, IV
(II: 6.30, V: 6.97, III: 8.92, I: 9.34, IV: 9.57)

P. c1cnc2c(N3CCC(N4CCN(c5cccc6cccnc56)CC4)CC3)cccc2c1 [Example 3]
Q. COc1ccccc1N1CCN(C2CCN(c3noc4ccccc34)CC2)CC1 [H]
R. Cc1ccc2cccc(N3CCN(C4CCN(c5cccc6cccnc56)CC4)CC3)c2n1 [Example 10]
Task: Ascending by pKi, please. Answer format: list of labels, ordered as asked.
Result: Q, R, P

A. Clc1ccc(N2CCN(C3CCN(c4cccc5cccnc45)CC3)CC2)c2ncccc12 [Example 8]
B. Fc1ccc2occ(N3CCN(C4CCN(c5ccc(F)c6cccnc56)CC4)CC3)c2c1 [F]
Task: Which value of pKi is smaller, the one for A or the one for B ? Indicate your choice by writing its label.
Result: B
(B: 8.77, A: 9.51)

P. Fc1ccc(N2CCC(N3CCN(c4cccc5cccnc45)CC3)CC2)c2ncccc12 [C]
Q. COc1ccc(N2CCN(C3CCN(c4cccc5cccnc45)CC3)CC2)c2ncccc12 [Example 14]
Task: Which value of pKi is smaller, the one for P or the one for Q ? Indicate your choice by writing its label.
Result: Q

---

biological target: human 5-HT1A receptor (Homo sapiens); construct: expressed in transfected cells; assay: Radioligand binding with [3H]8-OH-DPAT on membranes of 5-HT1A.CHO cells; details: [3H]8-OH-DPAT 1.5 nM, 5-HT1A.CHO cell membranes; read-out: 5-HT1A Affinity Ki
measured_metric: Ki (nM)
Response body: numeric value in nM, unit text excluded.

Look over these answered cases.
c1cc2c(c(N3CCN(C4CCN(c5cccc6cccnc56)CC4)CC3)c1)OCCO2 :: 0.38
COc1cc(N2CCN(C3CCN(c4c(F)ccc5cccnc45)CC3)CC2)c2ncccc2c1 :: 0.61

Consider now this further compound.
Briefly, Ki measured for "c1cnc2c(N3CCC(N4CCN(c5cccc6[nH]ccc56)CC4)CC3)cccc2c1" : 0.59
